experiment: PAMPA BBB permeability model; type: in vitro ADME; details: pH 7.4
Reported Property: Papp at 3 h (×10⁻⁶ cm/s)
Respond with the bare value in ×10⁻⁶ cm/s.

Request: Recorded Papp at 3 h of O=C(/C=C/C=C/c1ccc2c(c1)OCO2)N1CCCCC1 [piperine] , please.
Response: 57.7

Others:
Request: Recorded Papp at 3 h of COc1cc(/C=C/C(=O)CC(=O)/C=C/c2ccc(O)c(OC)c2)ccc1O [curcumin] , please.
Response: 2.63

---

assay: Apparent solubility study in phosphate buffer pH 6.8; type: physicochemical
In this section we review reported solubility at 3 h values for a set of compounds.
Respond with the bare value in µg/mL.

Request: Recorded solubility at 3 h of O=C(/C=C/C=C/c1ccc2c(c1)OCO2)N1CCCCC1 [piperine] , please.
Response: 6

Others:
Request: Recorded solubility at 3 h of COc1cc(/C=C/C(=O)CC(=O)/C=C/c2ccc(O)c(OC)c2)ccc1O [curcumin] , please.
Response: 0.1

Just for reference, paper PMC10180276 is where these values come from.
